- system-tested: Cannabinoid receptor 1 (Homo sapiens, UniProt P21554)
- Sequence (P21554 whole entry): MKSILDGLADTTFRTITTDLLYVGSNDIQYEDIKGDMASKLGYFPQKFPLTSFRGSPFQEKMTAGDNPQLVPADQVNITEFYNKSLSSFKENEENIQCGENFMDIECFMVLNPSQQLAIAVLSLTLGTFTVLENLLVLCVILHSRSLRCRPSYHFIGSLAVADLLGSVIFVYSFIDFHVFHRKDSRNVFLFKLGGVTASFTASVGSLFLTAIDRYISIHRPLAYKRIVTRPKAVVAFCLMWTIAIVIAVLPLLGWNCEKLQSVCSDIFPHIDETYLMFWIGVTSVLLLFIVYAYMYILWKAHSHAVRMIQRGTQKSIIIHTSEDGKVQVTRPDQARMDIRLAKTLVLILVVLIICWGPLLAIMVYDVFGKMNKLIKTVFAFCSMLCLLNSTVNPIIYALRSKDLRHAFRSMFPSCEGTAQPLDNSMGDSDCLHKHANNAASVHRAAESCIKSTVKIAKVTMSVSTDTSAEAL
- experiment-summary: Agonist activity at human cloned CB1 receptor expressed in CHO cells assessed as inhibition of forskolin-induced cAMP accumulation
- Assay type: functional, cell-based
pEC50: −log10 of the molar value.
Form field: pEC50 (one value per entry).
measured-endpoint: pEC50

- compound: "CC1CN(Cc2ccccc2-c2nc(-c3cccc(C(F)(F)F)c3)c[nH]2)CCO1 (stereo unspecified)"
  measured-endpoint: "pEC50"
  recorded-measurement: "< 5.00"
- compound: "CC(=O)n1cc(-c2cccc(C(F)(F)F)c2)nc1-c1cccc(CN2CCOCC2)c1"
  measured-endpoint: "pEC50"
  recorded-measurement: "< 6.00"
- compound: "FC(F)(F)c1cccc(-c2cn(CC3CC3)c(-c3cccc(CN4CCOCC4)c3)n2)c1"
  measured-endpoint: "pEC50"
  recorded-measurement: "< 6.00"
- compound: "OCC1CCCN(Cc2cccc(-c3nc(-c4cccc(C(F)(F)F)c4)c[nH]3)c2)C1 (stereo unspecified)"
  measured-endpoint: "pEC50"
  recorded-measurement: "< 6.00"
- compound: "CC1CCN(Cc2cccc(-c3nc(-c4cccc(Cl)c4Cl)c[nH]3)c2)CC1"
  measured-endpoint: "pEC50"
  recorded-measurement: "< 5.00"
- compound: "FC1CCN(Cc2ccccc2-c2nc(-c3cccc(C(F)(F)F)c3)c[nH]2)CC1"
  measured-endpoint: "pEC50"
  recorded-measurement: "< 5.00"

---

- system-tested: Cannabinoid receptor 2 (Homo sapiens, UniProt P34972)
- Sequence (P34972 whole entry): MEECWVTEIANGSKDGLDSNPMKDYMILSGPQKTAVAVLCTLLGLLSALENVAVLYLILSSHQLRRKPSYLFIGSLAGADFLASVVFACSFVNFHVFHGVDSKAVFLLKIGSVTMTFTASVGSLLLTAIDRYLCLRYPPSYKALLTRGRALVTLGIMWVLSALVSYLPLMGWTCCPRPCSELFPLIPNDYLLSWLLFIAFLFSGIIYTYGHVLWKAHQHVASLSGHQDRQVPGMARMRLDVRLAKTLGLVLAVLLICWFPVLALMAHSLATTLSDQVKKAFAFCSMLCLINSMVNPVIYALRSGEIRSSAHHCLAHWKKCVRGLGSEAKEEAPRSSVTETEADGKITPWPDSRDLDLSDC
- experiment-summary: Agonist activity at human cloned CB2 receptor expressed in CHO cells assessed as inhibition of forskolin-induced cAMP accumulation relative to control
- Type: functional, cell-based
Attribute: Emax
measured-endpoint: Emax (%)

- compound: "CC1CCCN(Cc2cccc(-c3nc(-c4cccc(C(F)(F)F)c4)c[nH]3)c2)C1 (configuration not stated)"
  measured-endpoint: "Emax"
  unit: "%"
  recorded-measurement: 87
- compound: "FC1CCN(Cc2cccc(-c3nc(-c4cccc(C(F)(F)F)c4)c[nH]3)c2)CC1"
  measured-endpoint: "Emax"
  unit: "%"
  recorded-measurement: 107
- compound: "Clc1ccc(-c2c[nH]c(-c3cccc(CN4CCCCC4)c3)n2)c(Cl)c1"
  measured-endpoint: "Emax"
  unit: "%"
  recorded-measurement: 104
- compound: "O[C@H]1CCCN(Cc2cccc(-c3nc(-c4cccc(C(F)(F)F)c4)c[nH]3)c2)C1"
  measured-endpoint: "Emax"
  unit: "%"
  recorded-measurement: 92
- compound: "Clc1cccc(-c2c[nH]c(-c3cccc(CN4CCCCC4)c3)n2)c1Cl"
  measured-endpoint: "Emax"
  unit: "%"
  recorded-measurement: 115
- compound: "FC(F)(F)c1cccc(-c2c[nH]c(-c3cccc(CN4CCOCC4)c3)n2)c1"
  measured-endpoint: "Emax"
  unit: "%"
  recorded-measurement: 80
- compound: "FC1CCCN(Cc2cccc(-c3nc(-c4cccc(C(F)(F)F)c4)c[nH]3)c2)C1 (configuration not stated)"
  measured-endpoint: "Emax"
  unit: "%"
  recorded-measurement: 98
- compound: "CCOc1ccc(F)c(-c2c[nH]c(-c3cccc(CN4CCCCC4)c3)n2)c1"
  measured-endpoint: "Emax"
  unit: "%"
  recorded-measurement: 102
- compound: "CC(=O)n1cc(-c2cccc(C(F)(F)F)c2)nc1-c1cccc(CN2CCOCC2)c1"
  measured-endpoint: "Emax"
  unit: "%"
  recorded-measurement: 102
- compound: "FC1CCN(Cc2ccccc2-c2nc(-c3cccc(C(F)(F)F)c3)c[nH]2)CC1"
  measured-endpoint: "Emax"
  unit: "%"
  recorded-measurement: 108
- compound: "Brc1cccc(-c2c[nH]c(-c3cccc(CN4CCOCC4)c3)n2)c1"
  measured-endpoint: "Emax"
  unit: "%"
  recorded-measurement: 112
- compound: "COc1ccc(-c2c[nH]c(-c3cccc(CN4CCC(F)(F)CC4)c3)n2)c(F)c1"
  measured-endpoint: "Emax"
  unit: "%"
  recorded-measurement: 107
- compound: "CC1CN(Cc2cccc(-c3nc(-c4cccc(C(F)(F)F)c4)c[nH]3)c2)CCO1 (configuration not stated)"
  measured-endpoint: "Emax"
  unit: "%"
  recorded-measurement: 97
- compound: "OCC1CCCN(Cc2cccc(-c3nc(-c4cccc(C(F)(F)F)c4)c[nH]3)c2)C1 (configuration not stated)"
  measured-endpoint: "Emax"
  unit: "%"
  recorded-measurement: 91
- compound: "CC1CCN(Cc2cccc(-c3nc(-c4cccc(Cl)c4Cl)c[nH]3)c2)CC1"
  measured-endpoint: "Emax"
  unit: "%"
  recorded-measurement: 107
- compound: "FC1CCN(Cc2cccc(-c3nc(-c4cccc(Cl)c4)c[nH]3)c2)CC1"
  measured-endpoint: "Emax"
  unit: "%"
  recorded-measurement: 107
- compound: "CC1CCN(Cc2cccc(-c3nc(-c4cccc(C(F)(F)F)c4)c[nH]3)c2)CC1"
  measured-endpoint: "Emax"
  unit: "%"
  recorded-measurement: 97

---

- system-tested: Cannabinoid receptor 1 (Homo sapiens)
- experiment-summary: Agonist activity at human cloned CB1 receptor expressed in CHO cells assessed as inhibition of forskolin-induced cAMP accumulation
pEC50: −log10 of the molar value.
measured-endpoint: pEC50

- smiles-string: "FC(F)(F)c1cccc(-c2c[nH]c(-c3cccc(CN4CCOCC4)c3)n2)c1"
  system-tested: "Cannabinoid receptor 1 (Homo sapiens)"
  measured-endpoint: "pEC50"
  recorded-measurement: "< 6.00"
- smiles-string: "CC(C)n1cc(-c2cccc(C(F)(F)F)c2)nc1-c1cccc(CN2CCOCC2)c1"
  system-tested: "Cannabinoid receptor 1 (Homo sapiens)"
  measured-endpoint: "pEC50"
  recorded-measurement: "< 6.00"
- smiles-string: "FC(F)(F)c1cccc(-c2c[nH]c(-c3cccc(CN4CCSCC4)c3)n2)c1"
  system-tested: "Cannabinoid receptor 1 (Homo sapiens)"
  measured-endpoint: "pEC50"
  recorded-measurement: "< 6.00"
